STUDY_SYSTEM: human DGKα (Homo sapiens, UniProt P23743)
Construct: inferred from the same paragraph's 'obtained from Carna Biosciences')
Sequence (P23743 whole entry): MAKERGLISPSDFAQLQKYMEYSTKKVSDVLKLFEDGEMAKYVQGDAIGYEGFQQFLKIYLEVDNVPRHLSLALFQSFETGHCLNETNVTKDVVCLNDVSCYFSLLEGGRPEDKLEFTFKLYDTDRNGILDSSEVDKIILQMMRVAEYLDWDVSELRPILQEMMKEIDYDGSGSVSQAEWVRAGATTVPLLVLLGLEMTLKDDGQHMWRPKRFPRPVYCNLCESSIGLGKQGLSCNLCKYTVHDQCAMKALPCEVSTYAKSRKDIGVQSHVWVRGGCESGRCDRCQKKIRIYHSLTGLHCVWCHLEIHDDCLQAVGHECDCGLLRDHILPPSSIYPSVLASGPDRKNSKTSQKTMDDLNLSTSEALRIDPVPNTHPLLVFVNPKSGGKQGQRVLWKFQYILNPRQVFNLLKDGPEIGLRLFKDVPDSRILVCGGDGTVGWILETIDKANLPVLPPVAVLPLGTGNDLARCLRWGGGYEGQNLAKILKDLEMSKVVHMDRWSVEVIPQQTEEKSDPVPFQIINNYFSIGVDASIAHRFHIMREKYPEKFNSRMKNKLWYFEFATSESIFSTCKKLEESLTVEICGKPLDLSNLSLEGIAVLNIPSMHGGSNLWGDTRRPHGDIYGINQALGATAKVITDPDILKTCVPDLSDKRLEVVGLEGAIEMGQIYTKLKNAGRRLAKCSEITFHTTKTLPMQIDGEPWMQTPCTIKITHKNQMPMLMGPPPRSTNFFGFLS
ASSAY: DGKα Biochemical Activity Assay (ADP-Glo)
RECORDED_METRIC: IC50 (nM)
Give just the numeric value; nM need not be written.

Record excerpt, results attached:
O=c1nc(N(CC(F)F)c2cccc(C#CC3(C(F)(F)F)CC3)n2)c2cc(F)ccc2[nH]1; 86.9
Cn1c(=O)nc(N(CC(F)F)c2cc(F)cc(C#CC3(C(F)(F)F)CC3)c2)c2ccc(Cl)cc21; 169
O=c1nc(N(CC(F)(F)F)c2cc(F)cc(C#CC3(C(F)(F)F)CC3)c2)c2cc(F)ccc2[nH]1; 97.3

Proceeding to the next molecule to report its IC50.
Prompt: Supply measured IC50 of `O=c1nc(N2CCCCc3c(Br)cncc32)c2c(F)c(F)ccc2[nH]1` in your reply.
Response: 44.1

----------
# maps each entry to its IC50
STUDY_SYSTEM: human DGKα (Homo sapiens, UniProt P23743)
Construct: inferred from the same paragraph's 'obtained from Carna Biosciences')
ASSAY: DGKα Biochemical Activity Assay (ADP-Glo)
Give just the numeric value; nM need not be written.

Record excerpt, results attached:
O=c1nc(N(CC(F)F)c2cncc(C#CC3(C(F)(F)F)CC3)c2)c2cc(F)ccc2[nH]1; 67.4
[2H]C([2H])([2H])n1c(=O)nc(N2CCCCc3c(C#CC(C)(C)O)cccc32)c2c(F)cccc21; 3.31
[2H]C([2H])([2H])n1c(=O)nc(N(CC(F)F)c2cccc(C#CC(C)(C)O)c2F)c2c(F)cccc21; 3.11
CN(c1cccc(-c2ccc(N3CCCS3(=O)=O)cc2)c1)c1nc(=O)n(C)c2cc(Cl)ccc12; 14
[2H]C([2H])([2H])n1c(=O)nc(N(CC(F)F)c2cc(F)cc(-c3cnc(C4CC4)cn3)c2)c2c(F)cccc21; 11.2

Prompt: Supply measured IC50 of `O=c1nc(N2CCCc3c(C#CC4(C(F)(F)F)CC4)cncc32)c2c(F)cccc2[nH]1` in your reply.
Response: 18.4

Prompt: Supply measured IC50 of `Cn1c(=O)nc(N(CC(F)(F)F)c2cc(F)cc(C#CC3(C(F)(F)F)CC3)c2)c2ccc(Cl)cc21` in your reply.
Response: 123

----------
STUDY_SYSTEM: human DGKα (Homo sapiens)
Construct: purchased Carna Biosciences'; inferred from the same paragraph's 'obtained from Carna Biosciences')
ASSAY: DGKα Biochemical Activity Assay (ADP-Glo)
# maps each entry to its IC50
Give just the numeric value; nM need not be written.

[2H]C([2H])([2H])n1c(=O)nc(N2CCOCc3c(C#CC(C)(C)NC(=O)C4(C(C)(F)F)CC4)cccc32)c2c(F)cccc21; 4.63
O=c1nc(N2CCOCc3c(C#CC4(C(F)(F)F)CC4)cccc32)c2c(F)ccc(F)c2[nH]1; 21.8
[2H]C([2H])([2H])n1c(=O)nc(N(CC(F)F)c2cc(F)cc(C#CC3(C)CCCO3)c2)c2c(F)c(F)ccc21 (stereo not shown); 3.27

Proceeding to the next molecule to report its IC50.
Prompt: Supply measured IC50 of `CC(C)(C#Cc1nccc(N(CC(F)F)c2nc(=O)[nH]c3cccc(F)c23)c1F)C(F)(F)F` in your reply.
Response: 40.8

----------
# maps each entry to its log10 of IC50
STUDY_SYSTEM: human DGKα (Homo sapiens, UniProt P23743)
Construct: inferred from the same paragraph's 'obtained from Carna Biosciences')
ASSAY: DGKα Biochemical Activity Assay (ADP-Glo)
Response schema: value (number) is log10 of IC50 in units of nM.

Record excerpt, results attached:
[2H]C([2H])([2H])n1c(=O)nc(N2CCOCc3c(Br)cccc32)c2c(F)cccc21; 1.49
[2H]C([2H])([2H])n1c(=O)nc(N(CC(F)F)c2ccnc(C#Cc3cnn(C)c3)c2)c2c(F)c(F)ccc21; 0.76
[2H]C([2H])([2H])n1c(=O)nc(N(CC(F)F)c2ccnc(C#CC3(C)CC3)c2)c2c(F)cccc21; 0.83
CN(c1cccc(-c2ccc(C3CC3)cc2)c1)c1nc(=O)n(C)c2cc(Cl)ccc12; 1.18
[2H]C([2H])([2H])n1c(=O)nc(N2CCCc3c(C#CC4(C(F)(F)F)CC4)cccc32)c2c(F)c(F)ccc21; 0.98
CC1(C#Cc2cccc3c2CCCCN3c2nc(=O)[nH]c3cccc(F)c23)CC1; 1.41
O=c1nc(N2CCCCc3c(Br)cncc32)c2c(F)cccc2[nH]1; 2.18

Proceeding to the next molecule to report its log10 of IC50.
Prompt: Supply measured log10 of IC50 of `[2H]C([2H])([2H])n1c(=O)nc(N2CCOCc3c(C#CC(C)(C)C#N)cccc32)c2c(F)c(F)ccc21` in your reply.
Response: 0.45

----------
STUDY_SYSTEM: human DGKα (Homo sapiens, UniProt P23743)
Construct: inferred from the same paragraph's 'obtained from Carna Biosciences')
ASSAY: DGKα Biochemical Activity Assay (ADP-Glo)
RECORDED_METRIC: IC50 (nM)
Give just the numeric value; nM need not be written.

CC(C)(O)C#Cc1cccc2c1OCCCN2c1nc(=O)[nH]c2cccc(F)c12; 4.42
[2H]C([2H])([2H])n1c(=O)nc(N(CC(F)F)c2ccnc(C#CC3(C(F)(F)F)CC3)c2)c2c(F)cccc21; 10.6
[2H]C([2H])([2H])n1c(=O)nc(N2CCOCc3c(C#CC4CCCN4C(=O)C4CC4)cccc32)c2c(F)cccc21 (stereo not shown); 9.06

Proceeding to the next compound to report its IC50.
Prompt: Give reported IC50 for `CC1(C#Cc2cccc3c2COCCN3c2nc(=O)[nH]c3cccc(F)c23)COC1` (human DGKα (Homo sapiens, UniProt P23743))
Response: 6.6

----------
STUDY_SYSTEM: human DGKα (Homo sapiens, UniProt P23743)
Construct: inferred from the same paragraph's 'obtained from Carna Biosciences')
ASSAY: DGKα Biochemical Activity Assay (ADP-Glo)
# maps each entry to its IC50
Give just the numeric value; nM need not be written.

Record excerpt, results attached:
[2H]C([2H])([2H])n1c(=O)nc(N2CCOCc3c(C#CC45CC(CN4CC(F)F)C5)cccc32)c2c(F)cccc21; 0.731
[2H]C([2H])([2H])n1c(=O)nc(N2CCCOc3c(C#CC4(C)CC4)cccc32)c2c(F)cccc21; 3.67
[2H]C([2H])([2H])n1c(=O)nc(N(CC(F)F)c2ccnc(C#CC(C)(C)C(F)F)c2F)c2c(F)cccc21; 6.41

Prompt: Supply measured IC50 of `[2H]C([2H])([2H])n1c(=O)nc(N2CCCc3c(C#CC4(C(F)(F)F)CC4)cccc32)c2c(F)cccc21` in your reply.
Response: 11.3

Prompt: Supply measured IC50 of `CC(C)(C#Cc1cncc2c1CCCN2c1nc(=O)[nH]c2cccc(F)c12)C(F)(F)F` in your reply.
Response: 126

Prompt: Supply measured IC50 of `CC1(C#Cc2cncc3c2CCCCN3c2nc(=O)[nH]c3ccc(F)cc23)CC1` in your reply.
Response: 5.58

Prompt: Supply measured IC50 of `CC1(C#Cc2cncc3c2CCCN3c2nc(=O)[nH]c3ccc(F)c(F)c23)CC1` in your reply.
Response: 7.96

Prompt: Supply measured IC50 of `O=c1nc(N(CC(F)F)c2cc(F)cc(-c3ccc(C(F)F)nc3)c2)c2c(F)cccc2[nH]1` in your reply.
Response: 54.4

Prompt: Supply measured IC50 of `O=c1nc(N(CC(F)(F)F)c2cccc(C#CC3(C(F)(F)F)CC3)c2)c2ccc(Cl)cc2[nH]1` in your reply.
Response: 176

----------
# maps each entry to its pIC50
STUDY_SYSTEM: human DGKα (Homo sapiens, UniProt P23743)
Construct: inferred from the same paragraph's 'obtained from Carna Biosciences')
ASSAY: DGKα Biochemical Activity Assay (ADP-Glo)
// scale note: pIC50 = -log10(conc_M); give the bare number

Record excerpt, results attached:
[2H]C([2H])([2H])n1c(=O)nc(N2CCCCc3c(C#CC4(C)CC4)cccc32)c2c(F)cccc21; 8.95
CC(C)(C#N)C#Cc1nccc(N(CC(F)F)c2nc(=O)[nH]c3cccc(F)c23)c1F; 7.97
O=c1nc(N2CCCCc3c(C#CC4(C(F)(F)F)CC4)cccc32)c2c(F)cccc2[nH]1; 7.65

Prompt: Supply measured pIC50 of `CN(c1cccc(-c2ccc(N3CCCC3)nc2)c1)c1nc(=O)[nH]c2cc(Cl)ccc12` in your reply.
Response: 7.07

----------
STUDY_SYSTEM: human DGKα (Homo sapiens, UniProt P23743)
Construct: inferred from the same paragraph's 'obtained from Carna Biosciences')
ASSAY: DGKα Biochemical Activity Assay (ADP-Glo);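 further: recombinant enzyme converting diacylglycerol in lipid micelles with ATP, ADP formed detected by luminescence, IC50 from a four-parameter nonlinear fit, geometric mean across experiments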
Param label: returns True when IC50 < 8 nM, returns False otherwise, including exact equality.

Past entries and their recorded results:
CC(C)(O)CC#Cc1cccc2c1CCCN2c1nc(=O)[nH]c2cccc(F)c12 [Example 54]; False
CC1(C#Cc2cccc3c2COCCN3c2nc(=O)[nH]c3c(F)ccc(F)c23)CC1 [Example 145]; False
CC(C)(C#N)C#Cc1cccc2c1COCCN2c1nc(=O)[nH]c2ccc(F)c(F)c12 [Example 91]; True
CC(C)(O)C#Cc1cccc2c1CCCN2c1nc(=O)[nH]c2cccc(F)c12 [Example 43]; True

Prompt: Could you please tell me whether IC50 recorded for CCn1c(=O)nc(N2CCCc3c(C#CC4(C(F)(F)F)CC4)cccc32)c2c(F)cccc21 [Example 20] is less than 8 nM?
Response: False

Prompt: Could you please tell me whether IC50 recorded for CC(F)(F)C1(C#Cc2cccc3c2COCCN3c2nc(=O)[nH]c3cccc(F)c23)CC1 [Example 112] is less than 8 nM?
Response: False

Prompt: Could you please tell me whether IC50 recorded for CN(c1cccc(-c2ccc(N3CCCS3(=O)=O)cc2)c1)c1nc(=O)[nH]c2cc(Cl)ccc12 [Example 9] is less than 8 nM?
Response: False
